- System: Tomato
- experiment-notes: Phytotoxicity, tomato
- study-conditions: 2500 ppm, 10 days
property: Phytotoxicity Rating, Tomato
// no unit, no text: just the number

Item: CCCCCCCCCCCCCCCCCC(=O)OC1=C(c2c(C)cc(C)cc2C)C(=O)c2ccccc21 | System: Tomato | Phytotoxicity Rating, Tomato: 1

Item: CCC(=O)OC1=C(c2c(C)cc(C)cc2C)C(=O)c2ccccc21 | System: Tomato | Phytotoxicity Rating, Tomato: 2

Item: Cc1cc(C)c(C2=C(OC(=O)C3CCCCC3)c3ccccc3C2=O)c(C)c1 | System: Tomato | Phytotoxicity Rating, Tomato: 2

Item: Cc1cc(C)c(C2=C(OC(=O)C3CC4C=CC3C4)c3ccccc3C2=O)c(C)c1 (centres unmarked) | System: Tomato | Phytotoxicity Rating, Tomato: 1

Item: Cc1cc(C)c(C2=C(OC(=O)C(C)(C)C)c3ccccc3C2=O)c(C)c1 | System: Tomato | Phytotoxicity Rating, Tomato: 3

====

- Test system: Perennial rye grass, crabgrass, red root pigweed, mustard
- experiment-notes: Preliminary Herbicide Seed Germination Test
- study-conditions: rating/maximum 15: 100 ppm only, crabgrass omitted, each rated 1 (no injury) to 5 (no seedlings emerged)
property: Herbicide (total preemergence rating)

Item: Cc1ccc(C(=O)OC2=C(c3c(C)cc(C)cc3C)C(=O)c3ccccc32)c(C)c1 | System: Perennial rye grass, crabgrass, red root pigweed, mustard | Herbicide (total preemergence rating): 11/15

Item: CCCCCCCCCCCCCCCCCCOC(=O)OC1=C(c2c(C)cc(C)cc2C)C(=O)c2ccccc21 | System: Perennial rye grass, crabgrass, red root pigweed, mustard | Herbicide (total preemergence rating): 13/15

Item: COc1cccc(OC)c1C(=O)OC1=C(c2c(Cl)cccc2Cl)C(=O)c2ccccc21 | System: Perennial rye grass, crabgrass, red root pigweed, mustard | Herbicide (total preemergence rating): 12/15

Item: Cc1cc(C)c(C(=O)OC2=C(c3c(C)cc(C)cc3C)C(=O)c3ccccc32)c(C)c1 | System: Perennial rye grass, crabgrass, red root pigweed, mustard | Herbicide (total preemergence rating): 10/15

Item: COC(=O)CCC(=O)OC1=C(c2c(C)cc(C)cc2C)C(=O)c2ccccc21 | System: Perennial rye grass, crabgrass, red root pigweed, mustard | Herbicide (total preemergence rating): 15/15

Item: Cc1cc(C)c(C2=C(OC(=O)CCCCl)c3ccccc3C2=O)c(C)c1 | System: Perennial rye grass, crabgrass, red root pigweed, mustard | Herbicide (total preemergence rating): 14/15

====

For each record, write down the corresponding Average mite control rating, 1st Reading.
- Tested on: two-spotted mite
- experiment-notes: Small scale field tests, mite control on Tendergreen bean plants
- Assay type: in vivo, Tetranychus urticae (Koch)
- study-conditions: Test I, 500 ppm, 4 days; scale 1 (no control) to 5 (complete control)
// no unit, no text: just the number

# Average mite control rating, 1st Reading of Cc1cc(C)c(C2=C(OC(=O)C(C)(C)C)c3ccccc3C2=O)c(C)c1 = 4.0

# Average mite control rating, 1st Reading of Cc1cc(C)c(C2=C(OC(=O)c3ccccc3Cl)c3ccccc3C2=O)c(C)c1 = 2.5

# Average mite control rating, 1st Reading of O=C1c2ccccc2C(=O)C1c1c(Cl)cccc1Cl [Compound B, 2-(2',6'-dichlorophenyl)-1,3-indandione, reference compound] = 1.5

====

- System: adults and nymphal stages of the two-spotted mite
- experiment-notes: Mite Foliage Spray Test
- Type: in vivo, Tetranychus urticae (Koch)
- study-conditions: 4 days
For each record, write down the corresponding Mite Adult rating.

# Mite Adult rating of Cc1cc(C)c(C2=C(OC(=O)c3ccccc3C)c3ccccc3C2=O)c(C)c1 = 5 (100% mortality)

# Mite Adult rating of CCC(CC)C(=O)OC1=C(c2ccc(C(C)C)cc2)C(=O)c2ccccc21 = 1

# Mite Adult rating of CC(C)c1ccccc1C1=C(OC(=O)C(C)(C)C)c2ccccc2C1=O = 1

# Mite Adult rating of CCCCC(CC)COC(=O)OC1=C(c2c(C)cc(C)cc2C)C(=O)c2ccccc21 (stereo not shown) = 5 (100% mortality)

# Mite Adult rating of Cc1cc(C)c(C2=C(OC(=O)c3cccc(Cl)c3)c3ccccc3C2=O)c(C)c1 = 5 (100% mortality)

# Mite Adult rating of O=C(OC1=C(c2c(Cl)cccc2Cl)C(=O)c2ccccc21)c1ccc([N+](=O)[O-])cc1 = 5 (100% mortality)

# Mite Adult rating of O=C(OC1=C(c2c(Cl)cccc2Cl)C(=O)c2ccccc21)c1cccc([N+](=O)[O-])c1 = 5 (100% mortality)

# Mite Adult rating of Cc1cc(C)c(C(=O)OC2=C(c3c(C)cc(C)cc3C)C(=O)c3ccccc32)c(C)c1 = 1

# Mite Adult rating of CCCCC(CC)C(=O)OC1=C(c2ccccc2OC)C(=O)c2ccccc21 (stereo not shown) = 1

# Mite Adult rating of COc1ccccc1C1=C(OC(=O)C(C)(C)C)c2ccccc2C1=O = 1

# Mite Adult rating of Cc1ccccc1C1=C(OC(=O)C(C)(C)C)c2ccccc2C1=O = 5 (100% mortality)

# Mite Adult rating of CCCCCCCCCCCCCCCC(=O)OC1=C(c2ccccc2C)C(=O)c2ccccc21 = 3 (an approximately 50% mortality)

# Mite Adult rating of Cc1cc(C)c(C2=C(OC(=O)OC3=C(c4c(C)cc(C)cc4C)C(=O)c4ccccc43)c3ccccc3C2=O)c(C)c1 = 5 (100% mortality)

# Mite Adult rating of O=C(OC1=C(c2c(Cl)cccc2Cl)C(=O)c2ccccc21)c1ccccc1Cl = 5 (100% mortality)

# Mite Adult rating of O=C(OC1=C(c2c(Cl)cccc2Cl)C(=O)c2ccccc21)c1ccc(Cl)cc1Cl = 5 (100% mortality)

# Mite Adult rating of CCCCCCCCCCCCCCCCCC(=O)OC1=C(c2c(C)cc(C)cc2C)C(=O)c2ccccc21 = 5 (100% mortality)

# Mite Adult rating of Cc1cc(C)c(C2=C(OC(=O)NC(C)(C)C)c3ccccc3C2=O)c(C)c1 = 5 (100% mortality)

# Mite Adult rating of Cc1cc(C)c(C2=C(OC(=O)c3c(C)cccc3C)c3ccccc3C2=O)c(C)c1 = 1

# Mite Adult rating of CCCCC(CC)C(=O)OC1=C(c2ccccc2)C(=O)c2ccccc21 (stereo not shown) = 1
